Task for the reader: assign each of the following variants its reported polymerase ribozyme fitness (log ratio).
B1: TPR 5TU (parent)
chain: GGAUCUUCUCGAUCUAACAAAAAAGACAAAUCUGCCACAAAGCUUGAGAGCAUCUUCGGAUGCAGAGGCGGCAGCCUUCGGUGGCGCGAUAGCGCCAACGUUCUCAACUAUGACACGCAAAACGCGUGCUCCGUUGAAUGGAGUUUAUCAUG

Variants of: B1
RUN DESCRIPTION: polymerase ribozyme fitness, log enrichment relative to wild type (log ratio); higher = more active; in vitro selection for triplet polymerase activity
Fewer inactive variants are shown than the library holds.
Answers are plain numbers.

The examples below pair each entry with its known result.
> print(dat)
                                  mutant                         measurement.type  numeric.value
1                            C118U A119U  polymerase ribozyme fitness (log ratio)         -0.842
2                             C93G U146G  polymerase ribozyme fitness (log ratio)          -3.41
3                             A91G C118U  polymerase ribozyme fitness (log ratio)          -3.15
4                       C38U U101G U135A  polymerase ribozyme fitness (log ratio)       -0.00114
5                              G59U G86U  polymerase ribozyme fitness (log ratio)          -3.85
6  C38U C76U C85G C96A C103A C114U C132U  polymerase ribozyme fitness (log ratio)          -4.19
7                       G92A C105U G141C  polymerase ribozyme fitness (log ratio)          -3.39
8                          U4G C38U C93G  polymerase ribozyme fitness (log ratio)          -2.52

Value sought for every listed variant: polymerase ribozyme fitness (log ratio).
1. C38A A89G C95G G124A
2. A3C C57U C93A

[-2.76, -1.56]
